target: T1, human MSLN-FL-his protein (human, UniProt Q13421 296-580); experiment: ELISA, coated antigen, no antibody (blank)
T1 construct: Made in HEK293E cells, purified on nickel column; also called hMSLN-FL-his; human MSLN full-length protein; not shown: His tag
T1 sequence (Q13421 other isoform, or with tags, fused parts or gaps): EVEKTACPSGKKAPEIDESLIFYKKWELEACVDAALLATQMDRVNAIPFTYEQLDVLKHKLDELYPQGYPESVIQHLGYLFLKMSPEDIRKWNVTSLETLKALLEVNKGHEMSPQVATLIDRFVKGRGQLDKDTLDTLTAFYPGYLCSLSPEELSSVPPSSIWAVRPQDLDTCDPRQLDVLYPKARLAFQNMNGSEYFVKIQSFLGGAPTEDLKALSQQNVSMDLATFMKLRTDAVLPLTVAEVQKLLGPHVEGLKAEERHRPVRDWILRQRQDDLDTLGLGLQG
valueKind: OD450
Give a plain numeric answer without units written out.

binder | OD450
S009-F7.61.21 chimeric antibody (antibody, human IgG1, kappa, V domains shown, Human-murine chimeric antibody, human IgG1/kappa constant regions) VH: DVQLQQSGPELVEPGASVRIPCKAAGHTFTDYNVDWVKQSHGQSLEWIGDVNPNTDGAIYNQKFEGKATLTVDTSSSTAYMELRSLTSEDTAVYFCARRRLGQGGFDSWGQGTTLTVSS VL: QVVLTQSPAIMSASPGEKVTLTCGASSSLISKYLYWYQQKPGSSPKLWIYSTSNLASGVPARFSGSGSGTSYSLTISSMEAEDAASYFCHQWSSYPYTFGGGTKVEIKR | 0.06

Record S009-F7.69.8 chimeric antibody (antibody, human IgG1, kappa, V domains shown, Human-murine chimeric antibody, human IgG1/kappa constant regions) VH: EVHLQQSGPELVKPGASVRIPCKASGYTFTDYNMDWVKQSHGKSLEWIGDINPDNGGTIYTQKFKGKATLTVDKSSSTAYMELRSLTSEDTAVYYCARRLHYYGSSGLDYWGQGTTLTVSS VL: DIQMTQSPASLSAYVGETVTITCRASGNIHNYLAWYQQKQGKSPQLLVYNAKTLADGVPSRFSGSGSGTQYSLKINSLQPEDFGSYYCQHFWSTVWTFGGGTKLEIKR . Reported OD450: 0.06

Record S009-F7.26.15 chimeric antibody (antibody, human IgG1, kappa, V domains shown, Human-murine chimeric antibody, human IgG1/kappa constant regions) VH: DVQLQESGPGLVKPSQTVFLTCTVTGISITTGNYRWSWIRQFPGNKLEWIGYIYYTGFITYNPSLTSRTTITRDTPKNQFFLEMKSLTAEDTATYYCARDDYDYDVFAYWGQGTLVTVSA VL: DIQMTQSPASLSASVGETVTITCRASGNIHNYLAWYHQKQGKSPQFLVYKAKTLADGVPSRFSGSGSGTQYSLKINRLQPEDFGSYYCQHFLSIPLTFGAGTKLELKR . Reported OD450: 0.06

Record S009-F7.11.11 chimeric antibody (antibody, human IgG1, kappa, V domains shown, Human-murine chimeric antibody, human IgG1/kappa constant regions) VH: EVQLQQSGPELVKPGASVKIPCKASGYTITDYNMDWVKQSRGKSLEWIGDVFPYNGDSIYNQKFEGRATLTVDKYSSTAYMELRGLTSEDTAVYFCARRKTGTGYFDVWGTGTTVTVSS VL: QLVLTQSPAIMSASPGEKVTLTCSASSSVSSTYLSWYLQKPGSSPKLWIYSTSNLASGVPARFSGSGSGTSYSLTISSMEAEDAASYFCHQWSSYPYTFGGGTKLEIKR . Reported OD450: 0.08

Record S009-F7.6.17 chimeric antibody (antibody, human IgG1, kappa, V domains shown, Human-murine chimeric antibody, human IgG1/kappa constant regions) VH: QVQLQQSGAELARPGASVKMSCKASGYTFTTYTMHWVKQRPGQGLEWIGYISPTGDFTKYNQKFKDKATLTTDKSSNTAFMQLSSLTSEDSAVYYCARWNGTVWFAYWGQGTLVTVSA VL: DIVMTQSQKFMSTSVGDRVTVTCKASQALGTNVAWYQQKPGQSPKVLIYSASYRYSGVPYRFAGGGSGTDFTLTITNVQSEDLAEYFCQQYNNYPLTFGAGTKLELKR . Reported OD450: 0.08
